- Tested on: HSP47
- condition-parameters: Table 4; siRNA 18 nM; rat stellate cells
Lab note: anything with % of Expression at Dose (nM) 18 nM below 30% is marked Met; values at 30% or higher are marked Not met.

Example entries begin here.
molecule	measured-on	group
CCCCC/C=C\C/C=C\CCCCCCCC(=O)OCCN(CCOC(=O)CCCCCCC/C=C\C/C=C\CCCCC)C(=O)CCCC(=O)NCCCC[C@H](NC(=O)CCCC(=O)N(CCOC(=O)CCCCCCC/C=C\C/C=C\CCCCC)CCOC(=O)CCCCCCC/C=C\C/C=C\CCCCC)C(=O)NCCCOCCOCCOCCOCCOCCCNC(=O)[C@H](CCCCNC(=O)CCCC(=O)N(CCOC(=O)CCCCCCC/C=C\C/C=C\CCCCC)CCOC(=O)CCCCCCC/C=C\C/C=C\CCCCC)NC(=O)CCCC(=O)N(CCOC(=O)CCCCCCC/C=C\C/C=C\CCCCC)CCOC(=O)CCCCCCC/C=C\C/C=C\CCCCC	HSP47	Met
CCCCC/C=C\C/C=C\CCCCCCCC(=O)OCCN(CCOC(=O)CCCCCCC/C=C\C/C=C\CCCCC)C(=O)CCC(=O)NCCCCC(NC(=O)CCC(=O)N(CCOC(=O)CCCCCCC/C=C\C/C=C\CCCCC)CCOC(=O)CCCCCCC/C=C\C/C=C\CCCCC)C(=O)NCCCOCCOCCOCCCNC(=O)C(CCCCNC(=O)CCC(=O)N(CCOC(=O)CCCCCCC/C=C\C/C=C\CCCCC)CCOC(=O)CCCCCCC/C=C\C/C=C\CCCCC)NC(=O)CCC(=O)N(CCOC(=O)CCCCCCC/C=C\C/C=C\CCCCC)CCOC(=O)CCCCCCC/C=C\C/C=C\CCCCC (centres unmarked)	HSP47	Met
CCC/C=C\C/C=C\CCCCCCCC(=O)OCCN(CCOC(=O)CCCCCCC/C=C\C/C=C\CCCCC)C(=O)CC[C@H](NC(=O)CCC(=O)NCCCOCCOCCOCCOCCOCCCNC(=O)CCC(=O)NC(CCC(=O)N(CCOC(=O)CCCCCCC/C=C\C/C=C\CCCCC)CCOC(=O)CCCCCCC/C=C\C/C=C\CCCCC)C(=O)N(CCOC(=O)CCCCCCC/C=C\C/C=C\CCC)CCOC(=O)CCCCCCC/C=C\C/C=C\CCCCC)C(=O)N(CCOC(=O)CCCCCCC/C=C\C/C=C\CCCCC)CCOC(=O)CCCCCCC/C=C\C/C=C\CCCCC (some centres unmarked)	HSP47	Not met

[ask] Strictly below 30%: is that where % of Expression at Dose (nM) 18 nM of CCCCC/C=C\C/C=C\CCCCCCCC(=O)OCCN(CCOC(=O)CCCCCCC/C=C\C/C=C\CCCCC)C(=O)CCC(=O)NC[C@H](NC(=O)CCC(=O)N(CCOC(=O)CCCCCCC/C=C\C/C=C\CCCCC)CCOC(=O)CCCCCCC/C=C\C/C=C\CCCCC)C(=O)NCCCOCCOCCOCCOCCOCCCNC(=O)[C@H](CNC(=O)CCC(=O)N(CCOC(=O)CCCCCCC/C=C\C/C=C\CCCCC)CCOC(=O)CCCCCCC/C=C\C/C=C\CCCCC)NC(=O)CCC(=O)N(CCOC(=O)CCCCCCC/C=C\C/C=C\CCCCC)CCOC(=O)CCCCCCC/C=C\C/C=C\CCCCC sits?
[reply] Not met
